assay: gradient 5% acetonitrile 3 min, to 50% in 2 min, to 85% in 15 min, held 3 min, 100 µL/min; settings: column: Zorbax Extend-C18 2.1 x 50 mm; eluents: water / acetonitrile, 0.1% formic acid
Output TRUE for records whose RP-LC retention time is lower than 700 s, FALSE for records at or above 700 s.

## Task Determine if `CC1=C(c2ccc(F)cc2)S(=O)(=O)N=C1N1CCCN(C(=O)c2ccccc2F)CC1` shows RP-LC retention time strictly lower than 700 s.
## Result FALSE

## Task Try this molecule next: `O=C(Cn1cccn1)N1CCN(c2cccc(Cl)c2Cl)CC1`
## Result FALSE

## Task Try this molecule next: Cc1cccc(NC(=O)N2CCC3(C2)C(=O)Nc2ccccc23)c1 (centres undefined)
## Result FALSE

## Task Try this molecule next: Cc1cccc(N(C)C(=O)Cn2nc3nc(N4CCCC(C)C4)ccn3c2=O)c1 (centres undefined)
## Result FALSE

## Task Try this molecule next: `Cc1[nH]c(=O)[nH]c(=O)c1S(=O)(=O)NC1CCCC1`
## Result TRUE

###

Recorded measurements of RP-LC retention time, one per entry
test: gradient 5% acetonitrile 3 min, to 50% in 2 min, to 85% in 15 min, held 3 min, 100 µL/min; details: column: Zorbax Extend-C18 2.1 x 50 mm; eluents: water / acetonitrile, 0.1% formic acid
Give the value, in units of s, as a plain number.

Answered cases to consult:
## Task Quick one: RP-LC retention time for `O=C(c1cnc2ccccc2n1)N1CC(c2nc(-c3cccc(C(F)(F)F)c3)no2)C1` ?
## Result 1030

## Task Try this molecule next: `COc1ccc(-c2nc3cnccn3c2Nc2ccc(C(=O)N3CCOCC3)cc2)cc1OC`
## Result 609

## Task Try this molecule next: `CCc1cccc(NC(=O)N2CCc3cn(CCOC)c4cccc(c34)C2)c1`
## Result 1030

## Task Try this molecule next: `O=C(NC1CC1)c1cn(-c2ncccc2-c2nc(-c3ccccc3)no2)cn1`
## Result 762

## Task Try this molecule next: CCn1ccc2cc(S(=O)(=O)N3CCCC(C(=O)NCCCN4CCCCC4)C3)ccc21 (stereo not given)
## Result 676

Further cases:
## Task Quick one: RP-LC retention time for `N#Cc1ncc(Cl)c2ccccc12` ?
## Result 1020

## Task Try this molecule next: `CC(C)(C)NC(=O)N1CC(N(Cc2ccncc2)S(C)(=O)=O)C1`
## Result 573

## Task Try this molecule next: `CC(C)NC(=O)c1ccc(OCC2CCN(C(=O)c3ccc(Br)o3)CC2)cc1`
## Result 878

## Task Try this molecule next: CCOc1cc(C2NCCc3c2[nH]c2ccc(Cl)cc32)ccc1O (stereo not given)
## Result 671

## Task Try this molecule next: O=C(c1ccc(F)c(Cl)c1)N(CC1CCOC1)C1CC1 (stereo not given)
## Result 824

###

assay: gradient 5% acetonitrile 3 min, to 50% in 2 min, to 85% in 15 min, held 3 min, 100 µL/min; settings: column: Zorbax Extend-C18 2.1 x 50 mm; eluents: water / acetonitrile, 0.1% formic acid
Everything with RP-LC retention time lower than 800 s is 0; everything else, including exactly 800 s, is 1.

## Task Tell me whether RP-LC retention time is at least 800 s here: `Cc1cc(C)n(CCNC(=O)CN2CCN(c3ccc4c(c3)OCCO4)C2=O)n1`
## Result 0

## Task Try this molecule next: COc1ccc(-c2noc(C3CCCN3C(=O)Nc3ccc(OC)c(Cl)c3)n2)cc1 (centres undefined)
## Result 1

###

experiment: gradient 5% acetonitrile 3 min, to 50% in 2 min, to 85% in 15 min, held 3 min, 100 µL/min; settings: column: Zorbax Extend-C18 2.1 x 50 mm; eluents: water / acetonitrile, 0.1% formic acid
Output Yes for records whose RP-LC retention time is lower than 800 s, No for records at or above 800 s.

Study these solved cases before continuing.
## Task Determine if `Cc1ccc(NS(=O)(=O)c2cc(-c3[nH]ncc3C(=O)N(C)C)oc2C)cc1Cl` shows RP-LC retention time strictly lower than 800 s.
## Result Yes

## Task Try this molecule next: NC(=O)c1cccc2[nH]c(-c3ccc(C4CCCN4)cc3F)nc12 (stereo not given)
## Result Yes

## Task Try this molecule next: `COc1ccc(Cl)cc1NC(=O)Nc1ccc2c(c1)C(=O)N(C)CCO2`
## Result Yes

## Task Try this molecule next: Cc1ccc(-c2noc(C3CCCN3S(=O)(=O)c3ccc(C)c(C)c3)n2)cc1 (stereo not given)
## Result No

## Task Try this molecule next: `COc1ccc(CCC(=O)N2CCN(c3nccn3-c3cccc(Cl)c3)CC2)cc1`
## Result Yes

Further cases:
## Task Determine if `CN1C(=O)C(=C2CCCC2)c2cc(S(=O)(=O)N3CCN(c4ccccn4)CC3)ccc21` shows RP-LC retention time strictly lower than 800 s.
## Result Yes

## Task Try this molecule next: `COc1cccc(-c2nc(-c3ccc4c(c3)nnn4CCN(C)C)no2)c1`
## Result Yes

## Task Try this molecule next: `COc1ccc(-c2cc(C(=O)Nc3ccc(F)c(F)c3)sn2)cc1`
## Result No

## Task Try this molecule next: `Cc1cnc(SCc2ccc(Cl)cc2Cl)[nH]c1=O`
## Result No

## Task Try this molecule next: `Cc1nnsc1C(=O)Nc1ccc([N+](=O)[O-])cc1C(F)(F)F`
## Result No

## Task Try this molecule next: `CCc1nnc2ccc(-c3noc(-c4cccc(Cl)c4)n3)cn12`
## Result No

###

Recorded measurements of RP-LC retention time, one per entry
assay: gradient 5% acetonitrile 3 min, to 50% in 2 min, to 85% in 15 min, held 3 min, 100 µL/min; settings: column: Zorbax Extend-C18 2.1 x 50 mm; eluents: water / acetonitrile, 0.1% formic acid
Give the value, in units of s, as a plain number.

Answered cases to consult:
## Task Quick one: RP-LC retention time for `Cc1ccc(Cl)cc1NC(=O)Cn1cccc1-c1nnc(C2CC2)o1` ?
## Result 956

## Task Try this compound next: `O=C(Cn1nc2c(Oc3ccccc3)nccn2c1=O)NCCCc1ccccc1`
## Result 871

## Task Try this compound next: `CCOc1ccc2ncc(S(=O)(=O)c3ccc(Cl)cc3)c(N3CCN(CC)CC3)c2c1`
## Result 685

## Task Try this compound next: `Cc1ccc(-c2nc(C)cc(OCC(=O)NCc3ccc4c(c3)OCO4)n2)cc1`
## Result 919

## Task Try this compound next: COC(=O)c1cc(S(=O)(=O)N2CCCC2C(=O)Nc2cccc(C#N)c2)cn1C (stereo not given)
## Result 826

## Task Try this compound next: `O=C(Cc1ccsc1)N1CCc2nn(CC3CC3)c(=O)n2CC1`
## Result 674

## Task Try this compound next: `Cc1cc(NC(=O)c2cc(-c3cccs3)[nH]n2)sn1`
## Result 672

## Task Try this compound next: `O=c1c2cc(-c3ccc(Cl)cc3)nn2ccn1Cc1nc(-c2cccc(F)c2)no1`
## Result 1190

## Task Try this compound next: `COCCC1CCN(C(=O)C2CCN(C(C)=O)CC2)CC1`
## Result 606

Moving on to another compound below.
## Task Quick one: RP-LC retention time for `O=C(Cn1cnc2c(-c3ccc(F)cc3)csc2c1=O)Nc1cc(F)ccc1F` ?
## Result 967

###

test: gradient 5% acetonitrile 3 min, to 50% in 2 min, to 85% in 15 min, held 3 min, 100 µL/min; settings: column: Zorbax Extend-C18 2.1 x 50 mm; eluents: water / acetonitrile, 0.1% formic acid
measured.attribute: RP-LC retention time (s)
Give the value, in units of s, as a plain number.

## Task Quick one: RP-LC retention time for O=C(CS(=O)Cc1cnn(-c2ccccc2)c1-n1cccc1)NCc1ccccc1 (stereo not drawn) ?
## Result 797

## Task Try this compound next: `Cc1cccc(C(=O)Nc2cc(-c3ccsc3)no2)c1`
## Result 992

## Task Try this compound next: O=C(CCCN1C(=O)C(c2ccccc2)Oc2cccnc21)NCCCN1CCOCC1 (stereo not drawn)
## Result 615

## Task Try this compound next: `CS(=O)(=O)N(Cc1cccnc1)C1CN(Cc2ccc(F)c(F)c2)C1`
## Result 571

Moving on to another compound below.
## Task Quick one: RP-LC retention time for `COC(=O)c1ccc(-c2nc3cnccn3c2Nc2cccc(C(=O)OC)c2)cc1` ?
## Result 822

###

assay: gradient 5% acetonitrile 3 min, to 50% in 2 min, to 85% in 15 min, held 3 min, 100 µL/min; conditions: column: Zorbax Extend-C18 2.1 x 50 mm; eluents: water / acetonitrile, 0.1% formic acid
measured.attribute: RP-LC retention time (s)
Give the value, in units of s, as a plain number.

Answered cases to consult:
## Task Quick one: RP-LC retention time for `CCN1CCN(c2ccc(-c3ccc(OC)c(S(=O)(=O)N4CCOCC4)c3)nn2)CC1` ?
## Result 585

## Task Try this compound next: `Cc1ccc(OCc2nc(C)c(C(=O)N3CCC(C(N)=O)CC3)s2)cc1`
## Result 696

## Task Try this compound next: Cc1cc(NC(=O)C2CCCN(c3nccnc3Oc3ccccc3)C2)ccc1Br (stereo unspecified)
## Result 989

Further cases:
## Task Quick one: RP-LC retention time for `CC(C)Cn1c(=O)c2ccccc2n(Cc2nc(-c3cccc(Br)c3)no2)c1=O` ?
## Result 1290

## Task Try this compound next: CNC(=O)C1CCCN1C(=O)Nc1cccc(C)c1 (stereo unspecified)
## Result 635

## Task Try this compound next: `COc1ccc(-c2noc(-c3nc(C)no3)n2)cc1OC`
## Result 888

## Task Try this compound next: `CCN1CCCn2cc(S(=O)(=O)NCc3ccccc3)cc2C1=O`
## Result 711

## Task Try this compound next: CCC1(O)CCC12CCN(C(=O)c1ccsc1)CC2 (stereo unspecified)
## Result 716

## Task Try this compound next: CCn1nccc1C(=O)N1CCCC1c1cccc(C)c1 (stereo unspecified)
## Result 849

## Task Try this compound next: `O=S(=O)(c1ccc(-c2noc(-c3ccccc3Cl)n2)cc1)N1CCOCC1`
## Result 1100

## Task Try this compound next: `CCOC(=O)CC(=O)CSc1nc2sc(C)cc2c(=O)n1C`
## Result 961

## Task Try this compound next: COc1ccc(/C(=N/O)C(c2ccc(OC)cc2)C2C(=O)Oc3ccccc32)cc1 (stereo unspecified)
## Result 840

## Task Try this compound next: `COc1ccc(C(=O)N2CCc3cc(-c4csc(C)n4)ccc32)cc1F`
## Result 951

## Task Try this compound next: `CCOC(=O)c1oc2ccc(S(=O)(=O)N3CCC(c4ccncc4)CC3)cc2c1C`
## Result 730

## Task Try this compound next: CCN(CC)C(=O)C1CCC(=O)N(c2ccc(OC)cc2)C1c1ccc(OC)c(OC)c1 (stereo unspecified)
## Result 676

## Task Try this compound next: `Cc1cc(F)ccc1NC(=O)c1cn2c(n1)CSCC2`
## Result 728

## Task Try this compound next: O=C(Cc1ccc(F)cc1)NC1CCN(c2cc(-c3ccc(F)cc3)[nH]n2)C1 (stereo unspecified)
## Result 720

## Task Try this compound next: `CC(C)C(=O)Nc1ccc2c(c1)N(C(=O)c1ccco1)CCC2`
## Result 743

## Task Try this compound next: `Cc1ccc(NC(=O)Cn2c(C)cc(-c3nnc(C)o3)c2C)c(Cl)c1`
## Result 835

## Task Try this compound next: CCS(=O)(=O)N1CCCCCC1c1ccccc1Cl (stereo unspecified)
## Result 1090

## Task Try this compound next: `Cn1c(=O)n(C)c2cc(S(=O)(=O)N3CCN(c4ccccn4)CC3)c(Cl)cc21`
## Result 602
